# Lookup of reported Percent Effect keyed by entry
- System: Wolbachia pipientis
- Test Summary: Anti-Wolbachia Cell-Based Screen
- Type: functional
- Design: scale not given: in the data most compounds retested in dose-response had high values
- Test Settings: 5 µM
Out of some 48,000 compounds screened, about 13,000 (27%) showed an effect of 50% or more. The list shows a part of the results.
Numeric answer only, unit % assumed.

CCC(CO)NC(=O)Nc1ccc(OCC(F)(F)F)c(C)c1 (stereo not given) | -12.14
CCCN1C[C@H]2CC[C@@H]1CN(Cc1ccc(Cn3cccn3)cc1)C2 | -13.63

In plain terms, `Cc1nnsc1CN1C[C@@H]2CC[C@H](C1)N(Cc1ccccc1)C2` has a documented Percent Effect of -5.089

In plain terms, CCOC(=O)NC(CNC(=O)c1cccc(C)n1)CC(C)C (stereo not given) has a documented Percent Effect of -0.9976

In plain terms, `CCCN1C[C@H]2CC[C@@H]1CN(c1nnc(C(C)C)s1)C2` has a documented Percent Effect of 100.1

----------
- System: Wolbachia pipientis
- Test Summary: Anti-Wolbachia Cell-Based Screen
- Assay type: functional
- Design: scale not given: in the data most compounds retested in dose-response had high values
- Test Settings: 5 µM
Hit rate of the full screen: of about 48,000 compounds, about 13,000 (27%) showed an effect of 50% or more. This is one part of the list.
Measure: Percent Effect (%)
Numeric answer only, unit % assumed.

Some solved entries appear below for comparison.
CN(C)c1cc(C2CCCN(C(=O)c3ccc(=O)[nH]n3)C2)ccn1 (stereo not given) | 139.8
Cc1nn(C)c(C)c1C1CCCN1C(=O)c1ccc(Cl)o1 (stereo not given) | -7.187
CC(=O)Nc1cccc(C(=O)N2CCc3c(nc(N(C)C)[nH]c3=O)C2)c1 | -4.662

Sample `COc1cc(F)c(NCc2nc3ccccc3n2C)cc1OC` , system: Wolbachia pipientis. Its Percent Effect is 108.7

Sample `CC(=O)c1cccc(OCCCC(=O)N(C)Cc2ccccn2)c1` , system: Wolbachia pipientis. Its Percent Effect is 14.18

----------
- Tested on: Wolbachia pipientis
- Test Summary: Anti-Wolbachia Cell-Based Screen
- Assay type: functional
- Set-up: scale not given: in the data most compounds retested in dose-response had high values
- Test Settings: 5 µM
In all, about 48,000 compounds went through this assay and about 13,000 (27%) showed an effect of 50% or more. The list shows a part of the results.
Measure: Percent Effect
// unit must come after the numeric part

Cc1ncsc1CN1CC[C@H]2OCC[C@@]2(C(=O)NCC2CC2)C1 | 4.364%
CCS(=O)(=O)N1CCOC2(CCCN(c3ccc(C)nn3)C2)C1.O=C(O)C(F)(F)F (stereo not drawn) | 0.7716%
Cc1ccc(N2C[C@H]3OCC[C@H]3[C@H](C(=O)NC3CCC3)C2)nn1 | -15.47%
Cc1ccc(N2CC[C@H]3OCC[C@@]3(C(=O)N3CCCO3)C2)nn1 | 93.84%
CS(=O)(=O)N1CC[C@H]2OCC[C@@]2(C(=O)NCC2CC2)C1 | 83.9%
CNc1ncccc1CN1CCN(C(C)=O)CC(C(N)=O)C1 (stereo not drawn) | 106.9%
Cc1noc(C)c1CN1CCc2ncc(CN3CCCC3)n2CC1.O=C(O)C(F)(F)F.O=C(O)C(F)(F)F | -7.49%

Turning to the following compound.
In plain terms, `CN1CCCN(C[C@H]2C[C@H](CO)CN(Cc3cccnc3N)C2)CC1` has a documented Percent Effect of -5.741%

----------
- Test system: Wolbachia pipientis
- Test Summary: Anti-Wolbachia Cell-Based Screen
- Format: functional
- Design: scale not given: in the data most compounds retested in dose-response had high values
- Test Settings: 5 µM
Screen size: about 48,000 compounds; about 13,000 (27%) showed an effect of 50% or more. This is one part of the list.
Measure: Percent Effect (%)
Numeric answer only, unit % assumed.

Some solved entries appear below for comparison.
CN(Cc1c(F)cccc1Cl)C(=O)c1cnn(CCN2CCOCC2)c1 | -8.866
COc1ccc2c(C)c(C(=O)NCC3CN(S(C)(=O)=O)CCO3)oc2c1 (stereo not drawn) | -45.67
CCN(CCN1CCOCC1)C(=O)c1cccnc1 | -15.37
Clc1cccc(Cl)c1CN(CCCN1CCOCC1)Cc1cccnc1 | 149.3
CCCN(Cc1ccccn1)Cc1ccccc1OC | 8.723
Cc1nc(CSc2ccc(C(F)(F)F)cn2)no1 | -11.09
Cc1ccc(N2CCCC(N(C)Cc3ccccn3)C2)nn1 (stereo not drawn) | 1.725

Turning to the following compound.
In plain terms, `Clc1ccc(CN(CCN2CCOCC2)Cc2cccnc2)cc1Cl` has a documented Percent Effect of 180.4

----------
- Test system: Wolbachia pipientis
- Test Summary: Anti-Wolbachia Cell-Based Screen
- Type: functional
- Design: scale not given: in the data most compounds retested in dose-response had high values
- Test Settings: 5 µM
The whole screen tested about 48,000 compounds, of which about 13,000 (27%) showed an effect of 50% or more. This is one part of the list.
# Lookup of reported Percent Effect keyed by entry
Numeric answer only, unit % assumed.

Some solved entries appear below for comparison.
Cc1nc(CN(C)C(=O)c2cccc(CC3CCNCC3)c2)no1 | -18.2
O=C1CC(c2ccc(C(=O)O)cc2)c2ncn(-c3cccnc3)c2N1 (stereo not given) | -9.053
CN1CCOC(C(=O)Nc2nc(-c3ccccc3F)n[nH]2)C1 (stereo not given) | -6.828
CCCS(=O)(=O)N(C)C(=O)CCc1ccsc1 | -1.511

Turning to the following compound.
Sample `CC(C)c1cc(C(=O)N2CCN(Cc3ccco3)CC2)n[nH]1` , system: Wolbachia pipientis. Its Percent Effect is 11.56

----------
- System: Wolbachia pipientis
- Test Summary: Anti-Wolbachia Cell-Based Screen
- Type: functional
- Parameters: scale not given: in the data most compounds retested in dose-response had high values
- Test Settings: 5 µM
About 13,000 (27%) of roughly 48,000 compounds showed an effect of 50% or more. The list shows a part of the results.
Measure: Percent Effect

Some solved entries appear below for comparison.
CSCCC(C)NC(=O)c1cccc(-c2n[nH]c(C)n2)c1 (centres undefined) | -6.222%
O=C(Nc1ccc2c(c1)OCCO2)c1ccc(=O)[nH]n1 | 99.56%
Fc1ccc(CN2CCOC(Cn3cncn3)C2)c2ncccc12 (centres undefined) | -8.547%

In plain terms, Clc1cccc(OCCCN2CCOC(Cn3cncn3)C2)c1 (centres undefined) has a documented Percent Effect of 125.7%

----------
- System: Wolbachia pipientis
- Test Summary: Anti-Wolbachia Cell-Based Screen
- Assay type: functional
- Set-up: scale not given: in the data most compounds retested in dose-response had high values
- Test Settings: 5 µM
About 13,000 (27%) of roughly 48,000 compounds showed an effect of 50% or more. Some of the results follow.
Label label 0 if Percent Effect falls below 10%; label label 1 in every other case.

CC(C)Cc1noc(CN(C)C(=O)CCNC(=O)c2ccccc2F)n1 | label 0
CN1CCCC1CCn1ccnc1-c1ccc2ccccc2n1 (stereo unspecified) | label 0
Cc1ccc(CNC(=O)CCN2CCOC(C(F)(F)F)C2)cc1 (stereo unspecified) | label 0
COc1ccc(-c2cc(-c3nc(CN4CCN(C)CC4)no3)[nH]n2)cc1 | label 0

Please turn your attention to the following entry.
input: Could you please find out whether `CCN1CCN(C)C(=O)C12CCN(Cc1csc(C)n1)CC2.O=C(O)C(F)(F)F` has Percent Effect that meets 10% or exceeds it?
output: label 1

----------
# Lookup of reported Percent Effect keyed by entry
- System: Wolbachia pipientis
- Test Summary: Anti-Wolbachia Cell-Based Screen
- Format: functional
- Set-up: scale not given: in the data most compounds retested in dose-response had high values
- Test Settings: 5 µM
About 13,000 (27%) of roughly 48,000 compounds showed an effect of 50% or more. This is one part of the list.
Numeric answer only, unit % assumed.

Some solved entries appear below for comparison.
c1csc(-c2nc(CN3CCOC(Cn4cncn4)C3)co2)c1 (stereo not drawn) | 1.427
O=C(c1ccccc1-n1cccn1)N1CCCN(c2cccnn2)CC1 | -6.198
O=C(c1ccccn1)N1CCC(Nc2cccnn2)CC1 | 18.78

In plain terms, `CN(C)S(=O)(=O)N1CC[C@]2(O)CCN(c3nc4ccccc4s3)C[C@@H]2C1` has a documented Percent Effect of 10.05

In plain terms, Cn1ncc(N2CCC(CNC3Cc4ccccc4C3)C2)cc1=O (stereo not drawn) has a documented Percent Effect of -0.06487

In plain terms, Cc1sc(-c2ccco2)nc1C(=O)N1CCCC1Cn1cccn1 (stereo not drawn) has a documented Percent Effect of 99.48

In plain terms, O=C(c1cnc(-c2ccco2)s1)N1CCCC1Cn1cccn1 (stereo not drawn) has a documented Percent Effect of -5.367

In plain terms, `Cc1ccc(S(=O)(=O)n2ccc(C(=O)NCC(F)(F)F)c2)cc1` has a documented Percent Effect of 31.33

In plain terms, `O=c1[nH]cnc2c1CCN(S(=O)(=O)c1cccc(OC(F)(F)F)c1)C2` has a documented Percent Effect of 122.9

In plain terms, `CCOCCOc1ccc(S(=O)(=O)N2CCc3c(nc[nH]c3=O)C2)cc1` has a documented Percent Effect of 99.77

In plain terms, O=S(=O)(N1CCOCC1)N1CCOC(CCCc2ccccc2)C1 (stereo not drawn) has a documented Percent Effect of 5.354

In plain terms, COCc1nc(NC(C)c2c(C)n[nH]c2C)c2cnn(C)c2n1 (stereo not drawn) has a documented Percent Effect of 8.424

Data provenance is ChEMBL document CHEMBL3988442.
